# Tested system: Histamine H4 receptor (Rattus norvegicus)
# Assay info: Antagonist activity at rat histamine H4 receptor expressed in HEK293 cells assessed as inhibition of histamine-induced intracellular calcium elevation by FLIPR assay relative to histamine
# Format: functional, cell-based
Lab note: compare Efficacy with 80%, writing rule met if less and rule not met if equal or more.

[[record]]
compound = "CN1CCN(c2nc(N)nc3c2CCc2ccccc2-3)CC1"
category_label = "rule met"

[[record]]
compound = "Nc1nc2c(c(N3CCNCC3)n1)CCc1ccccc1-2"
category_label = "rule met"

[[record]]
compound = "CN1CCN(c2cc(-c3ccc(C#N)cc3)nc(N)n2)CC1"
category_label = "rule met"

[[record]]
compound = "Nc1nc2c(c(N3CCNCC3)n1)Cc1ccccc1-2"
category_label = "rule not met"

